# system: T1, human CD24 (human, UniProt P25063 27-59, heavily glycosylated, GPI-anchored (as described in the background))
# T1 chain (looked up): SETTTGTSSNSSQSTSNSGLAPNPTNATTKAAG
# experiment_notes: cell-based or functional assay
reported_endpoint: EC50 (nM), phagocytosis against HT-29 cells
Response body: numeric value in nM, unit text excluded.

* ch81A7A10-hIgG4 (antibody, V domains shown) VH: QVQLKESGPGLVAPLQSLSITCTVSGFSLSSYGVSWVRQLPGKGLEWLGVIWGDGSTDYHSTLTSRLSFSKDNSESQVFLKLNSLQTDDTATYYCAIFYGYDEGFAYWGQGTLVTVSA VL: ENVLTQSPAIMSAFLGEKVTMSCRASSTVNYMYWYQQKSDASPKVWIYYTSRLAPGVPARFSGSGSGNSFSLTISSMEGEDAATYYCQQFTSSPLTFGAGTKLELR | 0.157
* SN3 (antibody, V domains shown) VH: QVQLKESGPGLVAPSQSLSITCTVSGFSLTSYGVHWVRQPPGKGLEWLGVIWAGGSTNYNSALMSRLSISKDNSKSQVFLKMNSLQTDDTAMYYCAVYYGYLFFAYWGQGTLVTVSA VL: ENVLTQSPAIMSASPGEKVTMTCSASSSVSYMHWYQQKSTTSPKLWIYDTSKLASGVPGRFSGSGSGNSYSLTISSMEAEDVATYYCFQGSGYPLTFGGGTKLEIK | 2.1

// next item, EC50 (nM), phagocytosis against HT-29 cells requested
For the binder shown here, ch56A7E3-hIgG4 (antibody, V domains shown, chimeric) VH: EVQLQQSGPELVKPGASVKIPCKASGYTFTAYNMDWVKQSHGMSLEWIGDINPINGGTIYNQNFEGKATLTVDKSSSTAYLELRSLTSEDTAVYYCARRGSYYYGSSHYALDFWGQGTSVSVSS VL: DIQMTQITSSLSASLGDRVTITCRASQDISNYLNWYQQKPDGTVKLLIYYTSRLLSGVPSRFSGSGSGTDYSLTISNLEQEDIATYFCQQDHTLPRTFGGGTKLEIR , give the reported EC50 (nM), phagocytosis against HT-29 cells.
4.74
